System: RORγ receptor (Homo sapiens)
Sequence (P51449 269-508): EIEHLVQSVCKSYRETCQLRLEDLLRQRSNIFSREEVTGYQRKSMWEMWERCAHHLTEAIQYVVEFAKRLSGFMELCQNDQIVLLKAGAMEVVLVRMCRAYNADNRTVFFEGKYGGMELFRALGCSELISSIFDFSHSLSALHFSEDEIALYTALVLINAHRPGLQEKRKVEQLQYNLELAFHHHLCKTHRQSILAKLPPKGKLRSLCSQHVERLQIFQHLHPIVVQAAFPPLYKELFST
Experiment Notes: RORγ Gal4 reporter assay (Gal4-luciferase, inverse agonist activity)
Assay type: cell-based
Condition Set: Jurkat cells stably over-expressing hRORγ; Gal4-luciferase reporter; overnight incubation; read-out: RORγ Gal4, IC50
Experimental Endpoint: IC50 (nM)
Please state the figure in nM; there is no need to write the unit.

Worked examples, 5 compounds total:
* CS(=O)(=O)N1CCC(CNC(=O)[C@@H]2CC[C@@]3(S(=O)(=O)c4ccc(F)cc4)c4ccc(C(F)(C(F)(F)F)C(F)(F)F)cc4CC[C@@H]23)C1 (stereo partly drawn) [Example 277] | 6
* CC(C)(O)CN1C(=O)CCN1C(=O)N[C@@H]1CC[C@@]2(S(=O)(=O)c3ccc(F)cc3)c3ccc(C(F)(C(F)(F)F)C(F)(F)F)cc3CC[C@@H]12 | 5
* O=C(N[C@@H]1CC[C@@]2(S(=O)(=O)c3ccc(F)cc3)c3ccc(C(F)(C(F)(F)F)C(F)(F)F)cc3CC[C@@H]12)[C@H](O)C(F)(F)F | 13
* CC1(O)CN(C(=O)N[C@@H]2CC[C@@]3(S(=O)(=O)c4ccc(F)cc4)c4ccc(C(F)(C(F)(F)F)C(F)(F)F)cc4CC[C@@H]23)C1 | 9
* O=C1OCCN1[C@@H]1CC[C@@]2(S(=O)(=O)c3ccc(F)cc3)c3ccc(C(F)(C(F)(F)F)C(F)(F)F)cc3CC[C@@H]12 | 9

# input for lookup
Fill in: IC50 of NS(=O)(=O)N[C@H]1C[C@@H](NC(=O)[C@@H]2CC[C@@]3(S(=O)(=O)c4ccc(F)cc4)c4ccc(C(F)(C(F)(F)F)C(F)(F)F)cc4CC[C@@H]23)C1 [Example 280] is ___ 22
